Target: T1, mouse tissue factor pathway inhibitor (TFPI) (mouse, UniProt O54819 29-289, limits assumed)
T1 construct: bought; also called mTFPI; murine TFPI
T1 sequence (looked up): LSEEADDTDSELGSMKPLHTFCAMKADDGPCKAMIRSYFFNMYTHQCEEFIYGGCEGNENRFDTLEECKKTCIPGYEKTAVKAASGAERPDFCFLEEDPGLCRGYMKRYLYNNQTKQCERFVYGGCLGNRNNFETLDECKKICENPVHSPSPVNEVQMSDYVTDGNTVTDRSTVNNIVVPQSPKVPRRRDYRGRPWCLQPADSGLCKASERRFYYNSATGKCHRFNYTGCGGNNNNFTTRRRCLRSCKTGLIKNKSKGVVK
Test: competitive ELISA
QUANTITY_MEASURED: variant/HC_D62R (ratio)
Return type: number; implicit unit ratio.

Example binders with recorded variant/HC_D62R:
- 4B7 HC N32D+D62R+H107M+Y112D/LC F31M+S32R+D33R (Fab, V domains shown) VH: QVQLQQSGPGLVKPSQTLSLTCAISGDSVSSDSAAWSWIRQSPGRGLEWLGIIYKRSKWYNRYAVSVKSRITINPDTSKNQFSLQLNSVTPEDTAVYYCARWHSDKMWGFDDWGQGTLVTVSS VL: DIVMTQSPLSLPVTPGEPASISCRSSQSLVMRRGNTYLNWYLQKPGQSPQLLIYKGSNRASGVPDRFSGSGSGTDFTLKISRVEAEDVGVYYCQQYDSYPLTFGQGTKVEIKR: 13.9
- 4B7 HC N32D+D62R+H103D/LC F31I+D33R (Fab, V domains shown) VH: QVQLQQSGPGLVKPSQTLSLTCAISGDSVSSDSAAWSWIRQSPGRGLEWLGIIYKRSKWYNRYAVSVKSRITINPDTSKNQFSLQLNSVTPEDTAVYYCARWDSDKHWGFDYWGQGTLVTVSS VL: DIVMTQSPLSLPVTPGEPASISCRSSQSLVISRGNTYLNWYLQKPGQSPQLLIYKGSNRASGVPDRFSGSGSGTDFTLKISRVEAEDVGVYYCQQYDSYPLTFGQGTKVEIKR: 14.6

Request: I'd like to know its variant/HC_D62R. The binder in question is 4B7 HC N32D+D62R+H107M/LC S32R+D33R+N35I (Fab, V domains shown) VH: QVQLQQSGPGLVKPSQTLSLTCAISGDSVSSDSAAWSWIRQSPGRGLEWLGIIYKRSKWYNRYAVSVKSRITINPDTSKNQFSLQLNSVTPEDTAVYYCARWHSDKMWGFDYWGQGTLVTVSS VL: DIVMTQSPLSLPVTPGEPASISCRSSQSLVFRRGITYLNWYLQKPGQSPQLLIYKGSNRASGVPDRFSGSGSGTDFTLKISRVEAEDVGVYYCQQYDSYPLTFGQGTKVEIKR
Response: 16.1
